Reported relative IC50 values for the following compounds.
Tested on: MCF-7
assayMethodText: relative IC50 (midpoint of fitted logistic curve, plateau may be below 50% inhibition; CellTiter-Glo viability); higher = less potent
condition: 4-OH-tamoxifen in medium 1 µM; 72 h
Give the quantity in nM, number only.

Examples from the recorded data:
compound | target | readoutKind | readoutNumber
COc1ccccc1S(=O)(=O)Nc1ccc2c(c1)CN(C)C(=O)N2 [PFI-1] | MCF-7 | relative IC50 | 1890
CN(C)CCOc1ccc(/C(=C(/CCCl)c2ccccc2)c2ccccc2)cc1 [Toremifene (citrate)] | MCF-7 | relative IC50 | 3690

# ---- query compound ----
INPUT: What value of relative IC50 has been recorded for this entry: CN[C@@H]1C[C@H]2O[C@@](C)([C@@H]1OC)n1c3ccccc3c3c4c(c5c6ccccc6n2c5c31)C(=O)N[C@H]4O [UCN-01]
OUTPUT: 355
